For each entry below, report its Plant response rating, Lambsquarters value.
system: lambsquarters; test: Test B pre-/postemergence herbicide test; assay type: in vivo, Chenopodium album; conditions: preemergence, 125 g ai/ha; 0 to 100 scale, 0 is no effect, 100 is complete control

C=CCn1nc(C(C)(C)C)cc1C(=O)Nc1cccc(C(C)=NO)c1 | 90
CCCn1nc(C(C)(C)C)cc1C(=O)Nc1cccc(C(=O)NCC)c1 | 100
CCN(CC)C(=O)c1cccc(NC(=O)c2cc(C(C)(C)C)nn2CC)n1 | 80
CCn1nc(C(C)(C)C)cc1C(=O)Nc1cc(C(=O)OC(C)C)c(OC)cc1F | 60

From here, focus on the item given below.
Q: Consider the compound shown here: CCn1nc(C(C)(C)C)cc1C(=O)Nc1cc(C(=O)OC)c(OC)cc1F What is its recorded Plant response rating, Lambsquarters?
Result: 20

----------
For each entry below, report its Ducksalad plant response rating value.
system: ducksalad; assay: Test B flooded paddy test; format: in vivo, Heteranthera limosa; conditions: 1000 g ai/ha, scale 0 to 100 (0 no effect, 100 complete control)
Give bare numbers.

CCn1nc(C(C)(C)C)cc1C(=O)Nc1cncc(C(=O)NCC(F)(F)F)n1 | 0
CCNC(=O)c1ccc(F)c(N(C(C)=O)C(=O)c2cc(C(C)(C)C)nn2CC)c1 | 90
CCn1nc(C(C)(C)C)cc1C(=O)Nc1cc(C(N)=O)ccc1F | 40
C#CCNC(=O)c1cccc(NC(=O)c2cc(C(C)(C)C)nn2C)n1 | 0
CCc1nn(C(C)(C)CC)nc1C(=O)Nc1cccc(C(=O)N(C)C)c1 | 90

Return reported Ducksalad plant response rating values for all items listed beneath this line.
1. CCn1nc(C(C)(C)C)cc1C(=O)Nc1cc(C(=O)N2CCCC2)ccc1F
2. CCc1nn(C(C)(C)C)cc1C(=O)Nc1ccc(F)c(C(=O)N(C)C)c1
3. CCOc1ccc(F)c(NC(=O)c2cc(C(C)(C)C)nn2CC)c1
4. CCOC(=O)c1ccc(F)c(NC(=O)c2cc(C3(C)CC3)nn2CC)c1

Result:
1. 90
2. 0
3. 0
4. 80

Return reported Ducksalad plant response rating values for all items listed beneath this line.
1. CCc1cn(C(C)(C)C)nc1C(=O)Nc1cccc(C(=O)N(C)C)n1
2. CCc1nn(C(C)(C)C)nc1C(=O)Nc1cccc(C(=O)N2CCCCC2)c1

Result:
1: 0; 2: 90

Return reported Ducksalad plant response rating values for all items listed beneath this line.
1. CCn1nc(C(C)(C)C)cc1C(=O)Nc1cc(C(=O)N2CCOCC2)ccc1F
2. CCc1cn(C(C)(C)C)nc1C(=O)Nc1cc(C(=O)N(C)CC)ccn1

Result:
1. 90
2. 90

----------
For each entry below, report its Foxtail, Giant plant response rating value.
system: giant foxtail; experiment: Test A pre-/postemergence herbicide test; type: in vivo, Setaria faberi; conditions: Postemergence, 500 g ai/ha; 0 to 100 scale, 0 no effect, 100 complete control
Give bare numbers.

Return reported Foxtail, Giant plant response rating values for all items listed beneath this line.
1. CCNC(=O)c1ccnc(NC(=O)c2cn(C(C)(C)C)nc2CC)c1
2. CC(=O)c1cccc(NC(=O)c2cn(C(C)C)nc2C)c1
3. CCn1nc(C(C)(C)C)cc1C(=O)Nc1ccnc(C(=O)NCCF)c1
4. CCn1nc(C(C)(C)C)cc1C(=O)Nc1cncc(C(=O)N(C)C)n1

Result:
[25, 0, 20, 40]

----------
test system: wheat; assay: Test B postemergence herbicide test; assay type: in vivo, Triticum aestivum; parameters: key: 0 = no effect, 100 = complete control; details: Postemergence, 500 g ai/ha; scale 0 (no effect) to 100 (complete control)
For each entry below, report its Wheat plant response rating value.
Answers are plain numbers.

Return reported Wheat plant response rating values for all items listed beneath this line.
1. C=CCOc1cccc(NC(=O)c2cc(C(C)(C)C)nn2CC)c1
2. CCc1nn(C(C)(C)C)nc1C(=O)Nc1cccc(C(=O)N2CCCCC2)c1
3. C#CCNC(=O)c1cccc(NC(=O)c2nn(C(C)(C)C)nc2CC)c1
4. CCc1nn(C(C)(C)C)nc1C(=O)Nc1cccc(C(=O)NC2CC2)c1

Result:
20
30
10
20

----------
For each entry below, report its Crabgrass, Large plant response rating value.
system: large crabgrass; experiment: Test C pre-/postemergence herbicide test; type: in vivo, Digitaria sanguinalis; conditions: Postemergence, 500 g ai/ha; scale 0 to 100
Numbers only.

Worked cases, answers included:
CCn1nc(C(C)(C)C)cc1C(=O)Nc1cccc(OC(F)(F)F)c1 | 95
CC(=NO)c1cccc(NC(=O)c2cc(C(C)(C)C)nn2CC(F)(F)F)c1 | 30

Return reported Crabgrass, Large plant response rating values for all items listed beneath this line.
1. CCn1nc(C(C)(C)C)cc1C(=O)Nc1cccc(C(=O)NC2CC2)n1
2. CCn1nc(C(C)(C)C)cc1C(=O)Nc1cccc(C(C)=NO)c1

Result:
[85, 100]

----------
tested on: redroot pigweed; test: Test A pre-/postemergence herbicide test; assay type: in vivo, Amaranthus retroflexus; settings: Preemergence, 2000 g ai/ha; 0 to 100 scale, 0 no effect, 100 complete control
Measured quantity: Pigweed plant response rating
Give bare numbers.

CCCCn1nc(C(C)(C)C)cc1C(=O)Nc1cccc(C(=O)NCC)c1 | 85

Return reported Pigweed plant response rating values for all items listed beneath this line.
1. CCn1nc(C(C)(C)C)cc1C(=O)Nc1ccc(F)c(C(=O)NCCF)c1
2. CCOC(=O)c1cccc(NC(=O)c2cc(C(C)(C)C)nn2CCF)c1
3. CCn1nc(C(C)(C)C)cc1C(=O)Nc1cccc(C(=O)OC(C)C)c1C
4. CCn1nc(C(C)(C)C)cc1C(=O)Nc1cccc(C(=O)OCC2CC2)c1C

Result:
1. 100
2. 90
3. 35
4. 70

----------
test system: cocklebur; assay: Test B pre-/postemergence herbicide test; assay type: in vivo, Xanthium strumarium; conditions: Postemergence, 500 g ai/ha; visual rating after 13 to 15 days, scale 0 (no effect) to 100 (complete control)
Measured quantity: Plant response rating, Cocklebur
Give bare numbers.

Worked cases, answers included:
CCn1nc(C(C)(C)C)cc1C(=O)Nc1cccc2c1CNC2=O | 40
CCn1nc(C(C)(C)C)cc1C(=O)Nc1cccc(C(=O)OC(C)C)c1C | 0
C#CCOC(=O)c1cccc(NC(=O)c2cc(C(C)(C)C)nn2CC)c1 | 100
CCn1nc(C(C)(C)C)cc1C(=O)Nc1cccc(C(=O)OCC2CC2)c1C | 50

From here, focus on the item given below.
Q: Consider the compound shown here: C=Cn1nc(C(C)(C)C)cc1C(=O)Nc1cccc(C(=O)OCC)c1 What is its recorded Plant response rating, Cocklebur?
Result: 100

----------
test system: eastern black nightshade; test: Test C pre-/postemergence herbicide test; assay type: in vivo, Solanum ptycanthum; settings: 62 g ai/ha; preemergence
For each entry below, report its Plant response rating (0 = no effect, 100 = complete control), Nightshade value.
Answers are plain numbers.

Worked cases, answers included:
CCn1nc(C(C)(C)C)cc1C(=O)Nc1cccc(S(=O)(=O)C(F)(F)F)c1 [Compound 134] | 90
CCn1nc(C(C)(C)C)cc1C(=O)Nc1cccc(C(=O)NC2CC2)n1 [Compound 146] | 50
CCn1nc(C(C)(C)C)cc1C(=O)Nc1ccc(F)c(C(=O)NCCF)c1 [Compound 60] | 30

Q: Form entry - test system: eastern black nightshade; read-out: Plant response rating (0 = no effect, 100 = complete control), Nightshade; molecule: CCn1nc(C(C)(C)C)cc1C(=O)Nc1cc(C(=O)N(C)C)ccc1F [Compound 6]
Result: 100

----------
test system: corn; experiment: Test B pre-/postemergence herbicide test; format: in vivo, Zea mays; conditions: Postemergence, 500 g ai/ha; scale 0 (no effect) to 100 (complete control)
Measured quantity: Corn plant response rating
Numbers only.

Worked cases, answers included:
CCc1nn(C(C)(C)C)nc1C(=O)Nc1cccc(C(=O)N2CCCCC2)c1 [Compound 416] | 30
Cc1nn(C(C)(C)C)nc1C(=O)Nc1cccc(C(=O)N(C)C)c1 [Compound 391] | 30
C#CCOc1cccc(NC(=O)c2cc(C(C)(C)C)nn2CC)c1 [Compound 411] | 10

Return reported Corn plant response rating values for all items listed beneath this line.
1. C=CCOc1cccc(NC(=O)c2cc(C(C)(C)C)nn2CC)c1 [Compound 412]
2. C=CCN(CC=C)C(=O)c1cccc(NC(=O)c2nn(C(C)C)nc2CC)c1 [Compound 390]

Result:
1: 0; 2: 20

----------
tested on: rice; experiment: Test B flooded paddy test; assay type: in vivo, Oryza sativa; details: 1000 g ai/ha, scale 0 to 100 (0 no effect, 100 complete control)
Please note: condition met applies when Rice plant response rating is 60 or greater, and condition not met applies otherwise.

Consider the worked cases shown below.
CCCOC(=O)c1cc(NC(=O)c2cc(C(C)(C)C)nn2CC)c(F)cc1F | condition not met
CCc1nn(C(C)(C)C)nc1C(=O)Nc1cccc(C(=O)NC2CC2)c1 | condition met
CCn1nc(C(C)(C)C)cc1C(=O)Nc1cc(C(=O)N2CCOCC2)ccc1F | condition met
CCn1nc(C2(C)CC2)cc1C(=O)Nc1cccc(C(=O)N2CC=CC2)c1 | condition met

Q: Entry C#CCNC(=O)c1cncc(NC(=O)c2cc(C(C)(C)C)nn2CC)c1 : is its Rice plant response rating no less than 60?
Result: condition not met

Q: Entry C=CCN(CC=C)C(=O)c1ccc(F)c(NC(=O)c2nn(C(C)(C)C)nc2CC)c1 : is its Rice plant response rating no less than 60?
Result: condition not met

Q: Entry CCN1N=C(C(C)(C)C)CC1C(=O)Nc1cc(C(=O)N2CCCC2)ccc1F (racemic) : is its Rice plant response rating no less than 60?
Result: condition met
